# system_under_test: human SGLT1 (Homo sapiens)
# Sequence (P13866 whole entry): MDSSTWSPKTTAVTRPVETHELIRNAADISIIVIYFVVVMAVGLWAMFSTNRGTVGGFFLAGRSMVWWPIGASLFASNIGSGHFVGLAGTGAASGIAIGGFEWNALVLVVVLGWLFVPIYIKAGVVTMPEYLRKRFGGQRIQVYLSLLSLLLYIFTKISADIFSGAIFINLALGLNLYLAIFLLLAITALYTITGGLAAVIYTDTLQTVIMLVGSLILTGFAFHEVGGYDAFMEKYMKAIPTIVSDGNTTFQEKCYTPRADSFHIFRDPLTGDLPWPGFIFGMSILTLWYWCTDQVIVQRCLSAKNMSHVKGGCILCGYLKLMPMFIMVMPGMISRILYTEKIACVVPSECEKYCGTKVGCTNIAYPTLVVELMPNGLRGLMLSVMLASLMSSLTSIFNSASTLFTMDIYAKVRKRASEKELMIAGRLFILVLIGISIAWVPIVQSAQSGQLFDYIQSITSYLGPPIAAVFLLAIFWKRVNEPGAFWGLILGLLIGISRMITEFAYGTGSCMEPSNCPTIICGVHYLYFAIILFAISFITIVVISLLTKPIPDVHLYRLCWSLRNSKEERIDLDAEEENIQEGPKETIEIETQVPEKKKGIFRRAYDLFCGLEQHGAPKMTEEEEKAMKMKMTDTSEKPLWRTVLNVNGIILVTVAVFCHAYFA
# procedure_details: Cell-based assay for sodium-dependent glucose transport (14C-AMG uptake), CHOK-SGLT1
# recorded_conditions: CHO-K1 cells stably expressing human SGLT1; Na-dependent 14C-AMG uptake
measured_parameter: IC50 (µM)

| structure_as_smiles | system_under_test | measured_parameter | obs_value |
| --- | --- | --- | --- |
| COc1ccc(CCc2c[nH]c3cc(C)cc(O[C@@H]4O[C@H](CO)[C@@H](O)[C@H](O)[C@H]4O)c23)cc1 | human SGLT1 (Homo sapiens) | IC50 | 2.73 |
| CSc1ccc(Cc2c[nH]c3cccc(O[C@@H]4O[C@H](CO)[C@@H](O)[C@H](O)[C@H]4O)c23)cc1 | human SGLT1 (Homo sapiens) | IC50 | 1.31 |
| COc1ccc(CCc2c[nH]c3cccc(O[C@@H]4O[C@H](CO)[C@@H](O)[C@H](O)[C@H]4O)c23)cc1 | human SGLT1 (Homo sapiens) | IC50 | 0.56 |
| OC[C@H]1O[C@@H](Oc2cccc3[nH]cc(Cc4ccc(-c5cccnc5)cc4)c23)[C@H](O)[C@@H](O)[C@@H]1O | human SGLT1 (Homo sapiens) | IC50 | 1.12 |

a = OC[C@H]1O[C@@H](Oc2cccc3[nH]cc(CCc4ccc5c(c4)OCO5)c23)[C@H](O)[C@@H](O)[C@@H]1O
b = CC(=O)OC[C@H]1O[C@@H](Oc2cccc3[nH]cc(CCc4ccc5c(c4)CCO5)c23)[C@H](O)[C@@H](O)[C@@H]1O
c = OC[C@H]1O[C@@H](Oc2cccc3[nH]cc(CCc4ccc5c(c4)CCO5)c23)[C@H](O)[C@@H](O)[C@@H]1O
Query string: Rank the items in ascending order with respect to IC50. List the labels according to the requested ordering.
Result string: c, a, b
